- Test system: Staphylococcus aureus (S. aureus) 11540 strain
- testName: Standard microdilution MIC assay, S. aureus
- Format: cell-based
measurementKind: MIC

>>> assayvalue("CSc1cc(-n2cc3cc(-c4cc(CCC[C@@H](N)C5CC5)cc(C(F)(F)F)c4)[nH]c3nc2=O)ccc1[C@@H]1CCC[C@@H](CCNC(C)=N)N1")
"≤ 16 µg/mL"
>>> assayvalue("CC(=N)NCC[C@@H]1CCC[C@@H](c2ccc(-n3cc4cc(-c5cc(CCC[C@@H](N)CO)cc(Cl)c5F)[nH]c4nc3=O)cc2F)N1")
"≤ 16 µg/mL"
>>> assayvalue("CC(=N)NCCCN[C@@H](C)c1ccc(-n2cc3cc(-c4cc(CCC[C@H](C)N)cc(Cl)c4F)[nH]c3nc2=O)cc1")
"≤ 16 µg/mL"
>>> assayvalue("CCCC(=N)NCC[C@@H]1CCC[C@@H](c2ccc(-n3cc4cc(-c5cc(CCC[C@H](C)N)cc(Cl)c5F)[nH]c4nc3=O)cc2SC)N1")
"≤ 16 µg/mL"
>>> assayvalue("C=C[C@H](N)CCCc1cc(Cl)c(F)c(-c2cc3cn(-c4ccc([C@@H]5COC[C@@H](CCNC(=N)CF)N5)cc4)c(=O)nc3[nH]2)c1")
"≤ 16 µg/mL"
>>> assayvalue("C=CCN(CC[C@@H]1CCC[C@@H](c2ccc(-n3cc4cc(-c5cc(CCC[C@H](C)N)cc(Cl)c5F)[nH]c4nc3=O)cc2)N1C)C(C)=N")
"≤ 16 µg/mL"
>>> assayvalue("CC(=N)NCC[C@@H]1CCC[C@@H](c2ccc(-n3cc4cc(-c5cc(CCC[C@H](C)N)cc(Cl)c5F)[nH]c4nc3=O)cn2)N1")
"≤ 16 µg/mL"
>>> assayvalue("CSc1cc(-n2cc3cc(-c4cc(CCC[C@@H]5COCCN5)cc(Cl)c4F)[nH]c3nc2=O)ccc1[C@@H]1CCC[C@@H](CCNC(C)=N)N1")
"≤ 16 µg/mL"
>>> assayvalue("C[C@H](N)CCCc1cc(Cl)c(F)c(-c2cc3cn(-c4ccc(CN[C@@H](CO)CCNC(=N)CF)cc4)c(=O)nc3[nH]2)c1")
"≤ 16 µg/mL"
>>> assayvalue("C=CC(CCNC(C)=N)NCc1ccc(-n2cc3cc(-c4cc(CCC[C@@H](N)CO)cc(Cl)c4F)[nH]c3nc2=O)cc1 (stereo partly drawn)")
"≤ 16 µg/mL"
>>> assayvalue("N=C(CF)NCC[C@H](CO)NCc1ccc(-n2cc3cc(-c4cc(CCC[C@@H](N)CO)cc(Cl)c4F)[nH]c3nc2=O)cc1")
"≤ 16 µg/mL"
>>> assayvalue("C=C[C@H](N)CCCc1cc(Cl)c(F)c(-c2cc3cn(-c4ccc([C@@H]5CCC[C@@H](CCNC(C)=N)N5)cc4)c(=O)nc3[nH]2)c1")
"≤ 16 µg/mL"
